Target: human full-length glucocorticoid receptor (Homo sapiens, UniProt P04150)
Construct: a cell lysate containing recombinantly expressed human full-length glucocorticoid receptor; purchased PanVera Co., Madison, Wis; P2816
Sequence (P04150 1-777): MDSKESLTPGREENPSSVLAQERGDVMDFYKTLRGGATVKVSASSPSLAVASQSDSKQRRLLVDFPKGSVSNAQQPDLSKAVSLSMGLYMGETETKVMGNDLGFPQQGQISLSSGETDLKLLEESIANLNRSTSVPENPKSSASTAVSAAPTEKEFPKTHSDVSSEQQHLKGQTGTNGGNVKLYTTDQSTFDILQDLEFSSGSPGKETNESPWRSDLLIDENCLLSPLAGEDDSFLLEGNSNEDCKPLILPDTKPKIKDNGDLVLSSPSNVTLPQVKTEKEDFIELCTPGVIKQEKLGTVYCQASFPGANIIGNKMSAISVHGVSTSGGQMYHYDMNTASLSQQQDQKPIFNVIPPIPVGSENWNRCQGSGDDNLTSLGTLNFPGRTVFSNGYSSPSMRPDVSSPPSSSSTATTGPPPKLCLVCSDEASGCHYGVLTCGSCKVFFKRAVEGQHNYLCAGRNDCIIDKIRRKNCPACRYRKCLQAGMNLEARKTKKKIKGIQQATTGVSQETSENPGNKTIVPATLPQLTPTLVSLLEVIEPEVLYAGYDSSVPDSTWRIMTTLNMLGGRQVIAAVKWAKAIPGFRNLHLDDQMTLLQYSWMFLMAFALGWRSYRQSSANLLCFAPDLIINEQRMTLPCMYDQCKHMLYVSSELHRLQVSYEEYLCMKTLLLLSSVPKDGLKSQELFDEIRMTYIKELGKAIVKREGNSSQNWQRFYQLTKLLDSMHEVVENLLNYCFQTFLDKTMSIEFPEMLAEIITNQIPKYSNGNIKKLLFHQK
Test: Glucocorticoid Receptor Binding Assay (II), fluorescence polarization competitor kit (Fluormone GS1)
Conditions: cell lysate with recombinant human full-length GR, 1 nM Fluormone GS1, FP
PROPERTY LABEL: Ki (nM)
Respond numerically; units are nM and should not be typed.

Look up Ki: Cc1cc2c(cnn2-c2ccc(F)cc2)cc1CC(C)(C)C(=O)Nc1nncs1 5.6

Subsequent entry: CC(C)(C(=O)Nc1nncs1)[C@@H](c1ccccc1)c1ccc2c(cnn2-c2ccc(F)cc2C#N)c1 5.5

Subsequent entry: COC(=O)c1ccc(C(c2ccc3c(cnn3-c3ccc(F)cc3)c2)C(C)C(=O)Nc2nncs2)cc1 (stereo not drawn) 4.3

Subsequent entry: Cc1ccc(C(c2ccc3c(cnn3-c3ccc(F)cc3)c2)C(C)(C)C(=O)Nc2nccs2)cc1 (stereo not drawn) 1.9

Subsequent entry: CC(C)(C(=O)Nc1nccs1)C(c1ccc(F)cc1)c1ccc2c(cnn2-c2ccc(F)cc2)c1 (stereo not drawn) 2.4

Subsequent entry: CC(C)c1cc2c(cnn2-c2ccc(F)cc2)cc1CC(C)(C)C(=O)Nc1nncs1 1.6

Subsequent entry: Cn1cnc(NC(=O)CC(c2ccccc2)c2ccc3c(cnn3-c3ccc(F)cc3)c2)n1 (stereo not drawn) 11

Subsequent entry: CC(C)(C(=O)Nc1nncs1)C1(c2ccc3c(cnn3-c3ccc(F)cc3)c2)CCCCC1 1

Subsequent entry: CC(C)CC1(c2ccc3c(cnn3-c3ccc(F)cc3)c2)CC1C(=O)Nc1nccs1 (mixture of isomers) 102

Subsequent entry: COc1cccc(-n2ncc3cc(C(c4ccccc4)C(C)(C)C(=O)Nc4nncs4)ccc32)c1 (stereo not drawn) 36

Subsequent entry: O=C(Nc1nncs1)C(C1CCCCC1)C(c1ccccc1)c1ccc2c(cnn2-c2ccc(F)cc2)c1 (stereo not drawn) 6.4

Subsequent entry: C/C=C/CC(c1ccc2c(cnn2-c2ccc(F)cc2)c1)C(C)(C)C(=O)Nc1nncs1 (stereo not drawn) 1.3

Subsequent entry: CC(C)(C(=O)NC1CCC1)C(Cc1ccccc1)c1ccc2c(cnn2-c2ccc(F)cc2)c1 (stereo not drawn) 0.87

Subsequent entry: CN(C)C(=O)Nc1cc(F)ccc1-n1ncc2cc([C@H](c3ccccc3)C(C)(C)C(=O)Nc3nncs3)ccc21 25

Subsequent entry: CC(C)(C(=O)N[C@@H]1CCC[C@H]1O)[C@@H](c1ccccc1)c1ccc2c(cnn2-c2ccc(F)cc2)c1 0.6

Subsequent entry: O=C(Nc1nncs1)C(C1CCCC1)C(c1ccccc1)c1ccc2c(cnn2-c2ccc(F)cc2)c1 (stereo not drawn) 2.3

Subsequent entry: Cc1ccc(C(c2ccc3c(cnn3-c3ccc(F)cc3)c2)C(C)(C)C(=O)Nc2nncs2)cc1 (stereo not drawn) 1.8

Subsequent entry: CC(C)/C=C(\c1ccc2c(cnn2-c2ccc(F)cc2)c1)C(C)(C)C(=O)Nc1nncs1 4.7
